solubility kinetic values, listed per item
- recorded conditions: buffer; pH 7.4; 200.0 µM
Write it as a number; the unit µg/mL goes unstated.

Study these solved cases before continuing.
| smiles structure | outcome measure | endpoint value |
| --- | --- | --- |
| O=C(O)CCC(=O)NCc1c(Cl)cccc1Sc1ccc(Cl)cc1 | solubility kinetic | 38.3 |
| O=C(Cc1ccccc1)Nc1c(Cl)ccc2nsnc12 | solubility kinetic | 4.9 |
| O=C(NC(=S)Nc1cccc(Cl)c1Cl)C1CC1 | solubility kinetic | 0.8 |

query: Item Cn1c(SCCc2ccc([N+](=O)[O-])cc2)nccc1=O : provide solubility kinetic
result: 25.9

query: Kindly indicate its recorded solubility kinetic. Item: Nc1cc(Cl)ccc1C(=O)OCC(=O)NC1CCCCC1
result: 0.5

query: Return solubility kinetic for the following compound: Cc1cc(OCCN2CCOCC2)ccc1Cl
result: 25.9
